Origin of values: ChEMBL document CHEMBL4138123

- Tested on: A498
- ASSAY_EXPLANATION: Cytotoxicity against human A498 cells assessed as cell growth at 100 uM after 48 hrs by sulforhodamine B assay relative to control
- Format: functional
- TEST_CONTEXT: A498, 48 h, read-out: Activity

# SMILES_INPUT, growth at 100 µM (%)
rows = [
    ("COc1ccc(-c2cc(/C=C/C(=O)c3cc(OC)c(OC)c(OC)c3)[nH]n2)cc1OC", -91),
    ("COc1cc(-c2cc(/C=C/C(=O)c3ccc(Cl)c(Cl)c3)[nH]n2)cc(OC)c1OC", -25),
    ("COc1ccc(C(=O)/C=C/c2cc(-c3cc(OC)c(OC)c(OC)c3)n[nH]2)cc1OC", -96),
    ("COc1cc(C(=O)/C=C/c2cc(-c3cc(OC)c(OC)c(OC)c3)n[nH]2)cc(OC)c1OC", -98),
    ("COc1cc(-c2cc(/C=C/C(=O)c3ccc(N)cc3)[nH]n2)cc(OC)c1OC", -96),
]
